Source listed as ChEMBL document CHEMBL1201862.

# Tested on: SNB-19
# Test: NCI tumour cell line growth inhibition, 48 h
The source made the active and inactive calls. No stated cut-off is given here; in the data, active = GI50 up to about 1.1 µM and inactive = higher.
One label from this list, please: 1 for active, 0 for inactive

NS(=O)(=O)c1ccc(NC(=O)N/N=C/c2ccccc2O)cc1 = 0
O=C1NC(c2cccc3ccccc23)Nc2ccc(Cl)cc21 (stereo unspecified) = 1
CC(CCCCNC(=O)OC(C)(C)C)NC(=O)NC(C)CCCCNC(=O)OC(C)(C)C (stereo unspecified) = 0
COc1ccc(C(=O)/C=C/c2ccc(OCC#N)cc2)cc1 = 0
CN1CC=C(c2cccn2C)CC1 = 0
CNS(=O)(=O)NN(C)S(=O)(=O)c1ccc(OC)cc1 = 0
COC(=O)N1[C@H]2Cc3c(OC)c(C)c(OC)c(OC)c3[C@@H]1/C(=C\c1cc(OC)c(OC)c(C)c1OC)N(Cc1ccccc1)C2=O = 0
Cc1cc(S(=O)(=O)Nc2nnc3c4ccccc4cnn23)c(S)cc1Cl = 0
O=C(CCc1ccc(O)c(O)c1)NCCc1cc(O)c(O)c(O)c1 = 0
CCO/C=C1\N=C(C(Cl)c2ccccc2)OC1=O (stereo unspecified) = 0

For the next question, use this molecule.
Exercise: Any idea what this test logged for N#CC1=C(S)N(C2OC(CO)C(O)C(O)C2O)C(c2ccccc2)=CC1c1cccs1 (stereo unspecified) ?
Solution: 0

* * *

# System: A498
# Test: NCI tumour cell line growth inhibition, 48 h
The source made the active and inactive calls. Cut-off read from the data, not from the text of the source: active = GI50 up to about 1.1 µM and inactive = higher.
Pick from T (active), F (inactive) when you respond.

O=C(O)CSc1ncccc1[N+](=O)[O-] = F
COc1ccc(C(c2ccc3c(c2)OCO3)N2C(=O)CCC2C(=O)O)cc1 (configuration not stated) = F
OC(c1cccnc1)C(F)(F)c1nc2ccccc2o1 (configuration not stated) = F
Cc1ccccc1NC(=O)C(=O)C(C#N)c1ccc(Cl)cc1 (configuration not stated) = F
COc1ccccc1Nc1nc(N)nc(N)c1N=O = F

Exercise: Field: outcome | Entry: c1ccc2c(c1)c1ccccc1c1n[se]nc21
Solution: F

Exercise: What is the recorded call for this compound in the test? Cn1c(=O)c2c(nc3n2CCC(=O)N3CCCCl)n(C)c1=O
Solution: F

Exercise: Lab log entry: CC[C@@]1(O)C(=O)OCc2c1cc1n(c2=O)Cc2c-1nc1ccccc1c2/C=N\NC(=O)C[n+]1ccccc1 — outcome as called in the assay?
Solution: F

Exercise: In this assay, the call recorded for CCOC(=O)c1nc2ccccc2nc1Oc1cc(OC)c(OC)c(OC)c1 was what?
Solution: F

Exercise: Query: recorded result category for COC(=O)c1ccc(NCC2=C(Br)C(=O)C=CC2=O)cc1Cl in this test
Solution: F

Exercise: Assay result, entry CC#C[I+]c1ccccc1 — outcome?
Solution: F

Exercise: GET /call?item= NS(=O)(=O)c1cc2c(cc1Cl)NC(/C(=N/NC(=O)c1ccncc1)C1C(=O)NC(=O)NC1=O)=NS2(=O)=O returns the recorded outcome of this test.
Solution: F

* * *

# System: SK-MEL-2
# Test: NCI tumour cell line growth inhibition, 48 h
Counter-ions that a name gives are not always drawn. Activity calls are given as the source filed them. Cut-off read from the data, not from the text of the source: active = GI50 up to about 1.1 µM and inactive = higher.
Metric name: GI50

Guide cases for GI50, answers given:
COc1ccc(C[C@H]2COC(=O)[C@@H]2Cc2cc(OC)c(OC)c(OC)c2)cc1OC = > 88.3 µM (inactive)
CCCCCC(CO)C(O)(C(F)(F)F)C(F)(F)F (stereo unspecified) = > 10 µM (inactive)
O=C(Nc1ccccc1C(=O)NC(=O)c1ccccc1NC(=O)c1ccccc1)c1ccccc1 = 1.87 µM (inactive)
CN(C)c1c(C2CC(O)C(CO)O2)c(=O)c1=O (stereo unspecified) = > 100 µM (inactive)
C/C(CN1C(=O)c2ccccc2C1=O)=N\NS(C)(=O)=O = > 100 µM (inactive)
CN(CCNCc1cn(C)c2c1ccc1ccccc12)CCNCc1cn(C)c2c1ccc1ccccc12 = 1.79 µM (inactive)
CN(C)CCOC(c1ccccc1)c1ccccc1 [DIPHENHYDRAMINE HYDROCHLORIDE] = 72.4 µM (inactive)
Nc1ccc(-c2nc3ccccc3s2)cc1F = 19.2 µM (inactive)

// next item, GI50 requested
For this compound ( CC(C)CC(=O)NS(=O)(=O)c1ccccc1 ), measured GI50 is > 100 µM (inactive)

* * *

# Tested on: SNB-19
# Test: NCI tumour cell line growth inhibition, 48 h
Calls of active or inactive are those of the source. Cut-off read from the data, not from the text of the source: active = GI50 up to about 1.1 µM and inactive = higher.
// allowed return values: 1.0 = active, 0.0 = inactive

CC(O)/C=C/C1OC(=O)CC1Nc1ccc(C=O)cc1 (configuration not stated) = 0.0

Kindly consider the entry below.
Exercise: For this compound, state the assay outcome: COc1ccc(/C=C\c2cc(OC)c(OC(C)=O)c(OC)c2)cc1
Solution: 0.0

* * *

# System: HT-29
# Test: NCI tumour cell line growth inhibition, 48 h
Active and inactive are the calls of the source. Rule as the data show it: active = GI50 up to about 1.1 µM and inactive = higher.
Entries and their GI50

CC(C)(C)CC(C)(C)c1cc2c(O)c(c1)Cc1cc(C(C)(C)CC(C)(C)C)cc(c1O)Cc1cc(C(C)(C)CC(C)(C)C)cc(c1O)Cc1cc(C(C)(C)CC(C)(C)C)cc(c1O)Cc1cc(C(C)(C)CC(C)(C)C)cc(c1O)Cc1cc(C(C)(C)CC(C)(C)C)cc(c1O)Cc1cc(C(C)(C)CC(C)(C)C)cc(c1O)Cc1cc(C(C)(C)CC(C)(C)C)cc(c1O)C2 = > 100 µM (inactive)
CN(C)c1n/c(=N/c2cccc(Cl)c2)ss1 = 18.8 µM (inactive)

Measured GI50 of c1ccc2c(c1)cc1c3[nH]c4ccccc4c3ccn21 : > 10 µM (inactive)

* * *

# System: 786-0
# Test: NCI tumour cell line growth inhibition, 48 h
Activity calls are given as the source filed them. Rule as the data show it: active = GI50 up to about 1.1 µM and inactive = higher. Peptide text beside a SMILES is read from it. * marks the point of attachment. Boc = CC(C)(C)OC(=O)*
Write down one outcome, taken from True for active, False for inactive

Below are worked cases with known answers.
COC(=O)c1cc(Br)c(Br)n1C = False
COc1ccc(/C=N/Nc2nc(-c3cc4oc(=O)n(C)c4cc3Cl)cs2)cc1OC = False
CC12CCCC(O)C1CCC1=CC3(CCC12)SCCS3 (configuration not stated) = False

Exercise: Record lookup: outcome of this test for NC(=O)C12CC3CC(CC(Br)(C3)C1)C2 ?
Solution: False

Exercise: // outcome(item) with item = O=C1c2c(Br)sc(Br)c2[C@@H](NC(=O)C(F)(F)F)C1Br (some centres not stated)
Solution: False

Exercise: Please state the recorded outcome for this compound: CCCCOP1(=O)C=CC(Cl)=C(C)C1 (configuration not stated)
Solution: False

Exercise: // return assay outcome for COc1ccc(/C=C2\C[C@H]3[C@@H]4CC=C5C[C@@H](O)CC[C@]5(C)[C@H]4CC[C@]3(C)\C2=N\O)cc1
Solution: False

Exercise: Which outcome was entered for the compound C[C@@H](c1ccccc1)N(CC#N)C1CCC[C@H]1O (some centres not stated) in this test?
Solution: False

Exercise: Tell me the recorded outcome of this test for CN(Cc1cnc2nc(N)nc(N)c2n1)c1ccc(C(=O)NC2CCCCC2)cc1 .
Solution: False

Exercise: Tell me the recorded outcome of this test for COc1ccc(C2=C(N)c3c(OC)cccc3C2=O)cc1 .
Solution: False

Exercise: Identify the outcome logged in this assay for the compound shown: CSCCC(NC(=O)C(CC(C)C)NC(=O)CNC(=O)OC(C)(C)C)C(=O)N(C)C (stereo not drawn) (Boc-Gly-Leu-Met-NMe2; configuration not given here)
Solution: False

Exercise: Record request — test call for CC1=NN(C(=O)c2ccncc2)C(=O)C1/N=N/c1ccc2ccccc2c1 (configuration not stated)
Solution: False

Exercise: What was the test verdict on CCCCCCSc1nc(COC(=O)NC)c(COC(=O)NC)n1C ?
Solution: False

Exercise: Hi, do you know how O/N=C1/C(=C/c2ccccc2)CCCC1C(NO)c1ccccc1 (configuration not stated) came out in this test?
Solution: False

* * *

Here the recorded GI50 is given for each entry.
# Tested on: Malme-3M
# Test: NCI tumour cell line growth inhibition, 48 h
Active and inactive are the calls of the source. No stated cut-off is given here; in the data, active = GI50 up to about 1.1 µM and inactive = higher.

Solved entries:
O=C(NC/C(Cl)=C/Cl)Nc1c2ccccc2nc2ccccc12 = > 100 µM (inactive)
COC(OC)c1cccc2c1C1(O)CCC3(CC21)OCCCCO3 (stereo not given) = > 100 µM (inactive)
CN(C)/N=N/c1nc2c(c(=O)n(C)c(=O)n2C)n1CC1CO1 (stereo not given) = 9.18 µM (inactive)
CC1(C)CC2C(/C1=N/O)C1(C)CCCC2(C)C1O (stereo not given) = > 100 µM (inactive)

Lab note: COC(=O)C1=C(O)C(C(=O)OC)[C@]2(O)[C@@H](C(=O)OC)[C@H]1C[C@@H](c1ccccc1)[C@@H]2C(=O)OC (stereo not given in full) gave GI50 of 18.2 µM (inactive)

Lab note: COc1ccc2c(=O)c3ccoc3n(CC=C(C)C)c2c1 [ACROPHYLLINE] gave GI50 of 3.84 µM (inactive)

Query Cc1cccc(NS(=O)(=O)c2ccc(/N=N/c3c(O)c(C(=O)O)cc4ccccc34)cc2)n1 yields GI50 of > 100 µM (inactive)

So for C1=Nc2sc3c(c2C2=NCCN12)CCCC3 , the logged GI50 turned out to be 16.9 µM (inactive)
